The following compounds are shown together with reported normalised response values.
Test system: SK-BR-3
Procedure details: normalised response (% of control), CellTiter-Glo; higher = more viable cells (100 = DMSO, 0 = benzethonium chloride kill control)
Assay conditions: incubation time: 72 h

[
  {
    "Compound": "CN[C@@H]1C[C@H]2O[C@@](C)([C@@H]1OC)n1c3ccccc3c3c4c(c5c6ccccc6n2c5c31)C(=O)N[C@H]4O [UCN-01] (100 nM)",
    "Measurement target": "SK-BR-3",
    "normalised response, %": 39.4
  },
  {
    "Compound": "NC(=O)Nc1cc(-c2cccc(F)c2)sc1C(=O)N[C@H]1CCCNC1 [AZD7762] (10 nM)",
    "Measurement target": "SK-BR-3",
    "normalised response, %": 103
  },
  {
    "Compound": "N.N.[Cl][Pt][Cl] [Cisplatin] (10 nM)",
    "Measurement target": "SK-BR-3",
    "normalised response, %": 93.5
  },
  {
    "Compound": "CCC1(c2ccc(N)cc2)CCC(=O)NC1=O (stereo not drawn) [Aminoglutethimide] (100 nM)",
    "Measurement target": "SK-BR-3",
    "normalised response, %": 99.3
  },
  {
    "Compound": "CC(=O)Nc1ccc(C(=O)Nc2ccccc2N)cc1 [Tacedinaline] (10 nM)",
    "Measurement target": "SK-BR-3",
    "normalised response, %": 95.3
  },
  {
    "Compound": "CCC1=C[C@@H]2CN(C1)Cc1c([nH]c3ccccc13)[C@@](C(=O)OC)(c1cc3c(cc1OC)N(C)[C@H]1[C@@](O)(C(=O)OC)[C@H](OC(C)=O)[C@]4(CC)C=CCN5CC[C@]31[C@@H]54)C2 [Vinorelbine] (100 nM)",
    "Measurement target": "SK-BR-3",
    "normalised response, %": 10.4
  },
  {
    "Compound": "N[C@@H](CSC(c1ccccc1)(c1ccccc1)c1ccccc1)C(=O)O [S-trityl-L-cysteine] (400 nM)",
    "Measurement target": "SK-BR-3",
    "normalised response, %": 93.5
  },
  {
    "Compound": "CS(=O)(=O)c1ccc(C2=C(c3ccccc3)C(=O)OC2)cc1 [Rofecoxib] (100 nM)",
    "Measurement target": "SK-BR-3",
    "normalised response, %": 110
  }
]

* * *

Tested on: BT-474
Procedure details: normalised response (% of control), CellTiter-Glo; higher = more viable cells (100 = DMSO, 0 = benzethonium chloride kill control)
Assay conditions: incubation time: 72 h

[
  {
    "Compound": "O=C1CCC(N2C(=O)c3ccccc3C2=O)C(=O)N1 (centres undefined) [Thalidomide] (10 nM)",
    "normalised response": "94%"
  },
  {
    "Compound": "O=C(O)c1ccc(-c2c[nH]c3ncc(-c4ccccc4)cc23)cc1C1CCCC1 (1000 nM)",
    "normalised response": "89.9%"
  },
  {
    "Compound": "Cc1ccc(-n2nc(C(C)(C)C)cc2NC(=O)Nc2ccc(OCCN3CCOCC3)c3ccccc23)cc1 [Doramapimod] (1 nM)",
    "normalised response": "95.5%"
  },
  {
    "Compound": "O=C(CCCCCCC(=O)Nc1ccc([C@H]2O[C@@H](CSc3nc(-c4ccccc4)c(-c4ccccc4)o3)C[C@@H](c3ccc(CO)cc3)O2)cc1)NO [Tubacin] (1000 nM)",
    "normalised response": "91.3%"
  },
  {
    "Compound": "COc1cc2nccc(Oc3ccc(NC(=O)C4(C(=O)Nc5ccc(F)cc5)CC4)cc3)c2cc1OC [Cabozantinib] (0.1 nM)",
    "normalised response": "101%"
  },
  {
    "Compound": "C[C@]12CC[C@@H]3c4ccc(O)cc4C[C@@H](CCCCCCCCC[S+]([O-])CCCC(F)(F)C(F)(F)F)[C@H]3[C@@H]1CC[C@@H]2O (some centres undefined) [Fulvestrant] (100 nM)",
    "normalised response": "104%"
  },
  {
    "Compound": "CCC1(c2ccc(N)cc2)CCC(=O)NC1=O (centres undefined) [Aminoglutethimide] (1000 nM)",
    "normalised response": "100%"
  },
  {
    "Compound": "COc1cc([C@@H]2c3cc4c(cc3[C@@H](O[C@@H]3O[C@@H]5CO[C@@H](C)O[C@H]5[C@H](O)[C@H]3O)[C@H]3COC(=O)[C@H]23)OCO4)cc(OC)c1O [Etoposide] (1 nM)",
    "normalised response": "103%"
  },
  {
    "Compound": "O=C1CCC(N2C(=O)c3ccccc3C2=O)C(=O)N1 (centres undefined) [Thalidomide] (1 nM)",
    "normalised response": "99.2%"
  },
  {
    "Compound": "CCC1(c2ccc(N)cc2)CCC(=O)NC1=O (centres undefined) [Aminoglutethimide] (1 nM)",
    "normalised response": "103%"
  },
  {
    "Compound": "C=C(c1ccc(C(=O)O)cc1)c1cc2c(cc1C)C(C)(C)CCC2(C)C [Bexarotene] (10 nM)",
    "normalised response": "99.8%"
  },
  {
    "Compound": "Cc1ccc(C(=O)Nc2ccc(CN3CCN(C)CC3)c(C(F)(F)F)c2)cc1C#Cc1cnc2cccnn12 [Ponatinib] (100 nM)",
    "normalised response": "93%"
  },
  {
    "Compound": "Cc1ccc(C(=O)Nc2ccc(CN3CCN(C)CC3)c(C(F)(F)F)c2)cc1C#Cc1cnc2cccnn12 [Ponatinib] (1 nM)",
    "normalised response": "104%"
  },
  {
    "Compound": "Oc1nc(-c2ccc(C(F)(F)F)cc2)nc2c1CSCC2 [XAV-939] (10 nM)",
    "normalised response": "102%"
  }
]
